meta.source: PubChem BioAssay

target: Cell division control protein 42 homolog (Homo sapiens); test: inhibition of fluorescent GTP binding to wildtype Cdc42 – biochemical, multiplex bead flow cytometry, Bodipy-FL-GTP, dose response (AID 1334); conditions: bead-based flow cytometry, Bodipy-FL-GTP binding to GST-Cdc42; at 100 µM (top of the series) unless noted
Entries with a potency or affinity are not part of this list.
fluorescence, percent of control (lower = inhibition) strictly under 40% means true; at 40% or over means false.

A selection of reference data follows.
COMPOUND	QUALITATIVE LABEL
N#C/C(=C\c1ccccc1)c1nc2ncccc2[nH]1	true
CCCCCN1CC(O)=C(c2nc(-c3ccc(Cl)cc3)cs2)C1=N	false
C=CCNC(=O)c1cc2c(=O)n3cc(C)ccc3nc2nc1NCC1CCCO1 (stereo not given)	false

# TODO verify fluorescence, percent of control (lower = inhibition) < 40% strictly for this compound: COc1ccc(/C=N/NC(=O)CSc2n[nH]c(=O)[nH]c2=O)cc1
false

# strict comparison: is reported fluorescence, percent of control (lower = inhibition) < 40%? input = Cn1cc(C=C2C(=O)CC(C)(C)CC2=O)c2ccccc21
false

Please check: fluorescence, percent of control (lower = inhibition) for Nc1c(S(=O)(=O)c2cccs2)c2nc3ccccc3nc2n1/N=C/c1cccc(O)c1 , strictly under 40% or not?
true

Is fluorescence, percent of control (lower = inhibition) strictly under 40% for the entry COc1ccccc1OCCn1cc(C(=O)O)c2c(Cl)cccc21 ?
false

Does NC(=S)N=Nc1c(O)[nH]c2c(Br)cc(Br)cc12 have fluorescence, percent of control (lower = inhibition) strictly under 40%?
true

State whether 40% exceeds fluorescence, percent of control (lower = inhibition) recorded for COc1cccc2c(SCC(=O)N/N=C/c3ccc(O)cc3O)cc(C)nc12 .
true

Item Cn1c(=O)c2c(nc(N3CCc4ccccc4C3)n2C)n(C)c1=O : fluorescence, percent of control (lower = inhibition) beneath 40%, strictly?
true

# strict comparison: is reported fluorescence, percent of control (lower = inhibition) < 40%? input = Cc1cc(NCc2ccccn2)n2c(nc3ccccc32)c1C#N
false

Here's an entry: O=C(O)/C=C/c1cn(Cc2ccccc2)nc1-c1ccccc1 . Is its fluorescence, percent of control (lower = inhibition) below 40%?
false

I'd appreciate it if you could check whether Cc1cc(=O)[nH]c2c(N=Nc3ccc(O)cc3)c(N)nn12 has fluorescence, percent of control (lower = inhibition) smaller than 40%.
true

Item COc1cccc(-n2nc3c(=S)[nH]nc(C)c3c2C)c1 : fluorescence, percent of control (lower = inhibition) beneath 40%, strictly?
false

Hi there! Is fluorescence, percent of control (lower = inhibition) for Cc1cc([N+](=O)[O-])ccc1N=Nc1c(N)[nH]n(-c2ccccc2)c1=O below 40%, do you know?
true

Lab note: fluorescence, percent of control (lower = inhibition) threshold 40%. Does this compound come in strictly under it? CCCN(N=Nc1cccc([N+](=O)[O-])c1)c1cccc([N+](=O)[O-])c1
false
